# System Under Test: human FolR2 (Homo sapiens, UniProt P14207)
# Sequence (P14207 with tags, fused parts or gaps): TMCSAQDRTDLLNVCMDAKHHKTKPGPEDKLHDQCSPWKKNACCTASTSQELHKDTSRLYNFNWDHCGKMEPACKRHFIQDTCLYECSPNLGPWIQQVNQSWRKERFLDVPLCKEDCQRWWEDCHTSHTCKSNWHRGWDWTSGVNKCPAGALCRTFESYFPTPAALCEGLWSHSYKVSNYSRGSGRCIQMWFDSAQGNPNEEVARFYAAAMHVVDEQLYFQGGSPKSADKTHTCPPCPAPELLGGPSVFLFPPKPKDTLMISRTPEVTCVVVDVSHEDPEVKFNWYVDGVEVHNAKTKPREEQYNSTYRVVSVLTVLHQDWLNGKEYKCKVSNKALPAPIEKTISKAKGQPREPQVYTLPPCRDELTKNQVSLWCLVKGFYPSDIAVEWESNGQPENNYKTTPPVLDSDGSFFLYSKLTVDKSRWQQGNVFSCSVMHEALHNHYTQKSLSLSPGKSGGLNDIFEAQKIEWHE
# Sequence (P01857 104-330 isoform P01857-1 Y232C/T249S/L251A/Y290V/H318R/Y319F partner): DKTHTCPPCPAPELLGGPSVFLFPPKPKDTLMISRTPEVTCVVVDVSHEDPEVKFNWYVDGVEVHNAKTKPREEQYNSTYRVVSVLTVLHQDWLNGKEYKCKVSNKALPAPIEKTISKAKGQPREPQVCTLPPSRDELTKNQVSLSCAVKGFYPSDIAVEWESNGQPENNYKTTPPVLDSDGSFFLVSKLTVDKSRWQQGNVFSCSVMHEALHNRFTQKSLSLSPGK
# Test Conditions: IgG injected for 60 seconds at 500 nM

# Molecule, Binding to huFolR2
records = [
    ("11F8: anti-FolR1 clone, generic multi-framework library (Vk_1_5/VH_1_69); Fab and IgG (antibody, V domains shown) VH: QVQLVQSGAEVKKPGSSVKVSCKASGGTFSSYAISWVRQAPGQGLEWMGGIIPIFGTANYAQKFQGRVTITADKSTSTAYMELSSLRSEDTAVYYCARAVFYRAWYSFDYWGQGTTVTVSS VL: DIQMTQSPSTLSASVGDRVTITCRASQSISSWLAWYQQKPGKAPKLLIYDASSLESGVPSRFSGSGSGTEFTLTISSLQPDDFATYYCQQYTSPPPTFGQGTKVEIK", "+"),
    ("Mov19: reference molecule, the human FolR1 binder Mov19 (IgG) (antibody, V domains shown) VH: QVQLQQSGAELVKPGASVKISCKASGYSFTGYFMNWVKQSHGKSLEWIGRIHPYDGDTFYNQNFKDKATLTVDKSSNTAHMELLSLTSEDFAVYYCTRYDGSRAMDYWGQGTTVTVSS VL: DIELTQSPASLAVSLGQRAIISCKASQSVSFAGTSLMHWYHQKPGQQPKLLIYRASNLEAGVPTRFSGSGSKTDFTLNIHPVEEEDAATYYCQQSREYPYTFGGGTKLEIK", "−"),
    ("6B6: anti-FolR1 clone, generic multi-framework library (Vk3_20/VH1_46); Fab and IgG (antibody, V domains shown) VH: QVQLVQSGAEVKKPGASVKVSCKASGYTFTSYYMHWVRQAPGQGLEWMGIINPSGGSTSYAQKFQGRVTMTRDTSTSTVYMELSSLRSEDTAVYYCARSYVDMDYWGQGTLVTVSS VL: EIVLTQSPGTLSLSPGERATLSCRASQSVSSSYLAWYQQKPGQAPRLLIYGASSRATGIPDRFSGSGSGTDFTLTISRLEPEDFAVYYCQQDIWSPTFGQGTKVEIK", "+"),
]
